Assay: Cytotoxicity against mouse B-lymphocytes
Type: toxicity, cell-based, B-cell
Value kind: CC50 (µM)

- Compound: "O=C1c2c(O)cccc2OC2C=C3O[C@H]4OC=C[C@@]4(O)C3=C(O)C12 (some centres not stated)"
  Value kind: "CC50"
  Qualifier symbol: ">"
  Numeric result: 40
- Compound: "C[C@]12CCC[C@H](O1)c1c(cc3c(c1O)C(=O)c1c(O)cc(O)cc1C3=O)O2"
  Value kind: "CC50"
  Qualifier symbol: ">"
  Numeric result: 40
- Compound: "CC(C)=CCc1ccc(O)c2c1OC1C=C3O[C@H]4OC=C[C@@]4(O)C3=C(O)C1C2=O (some centres not stated)"
  Value kind: "CC50"
  Qualifier symbol: "="
  Numeric result: 15
- Compound: "CO[C@H]1C[C@@]2(O)C3=C(O)C4C(=O)c5c(O)ccc(CCC(C)(C)O)c5OC4C=C3O[C@H]2O1 (some centres not stated)"
  Value kind: "CC50"
  Qualifier symbol: "="
  Numeric result: 8.9
- Compound: "COC1=C2C(=CC3Oc4ccc(Cl)c(OC)c4C(=O)C13)O[C@H]1O[C@H](OC(C)=O)C[C@@H]21 (some centres not stated)"
  Value kind: "CC50"
  Qualifier symbol: "="
  Numeric result: 28
- Compound: "COC1=C2C(=CC3Oc4cccc(O)c4C(=O)C13)O[C@H]1OC=C[C@@]21O (some centres not stated)"
  Value kind: "CC50"
  Qualifier symbol: ">"
  Numeric result: 40
- Compound: "CCCCC[C@H](OC)c1c(O)cc2c(c1O)C(=O)C1C(O)=CC(O)=CC1C2=O (some centres not stated)"
  Value kind: "CC50"
  Qualifier symbol: ">"
  Numeric result: 40

Source of measurements: ChEMBL document CHEMBL5335833
